Tested on: KAI3 (IL-2 2.5 ng/mL)
Test: percent inhibition of viability; higher = more inhibition
Details: 72 h; 1 nM
Below is a list of entries, each paired with its recorded percent inhibition of viability value.
Give a bare numeral; the unit % is implied.

# MOLECULE, percent inhibition of viability / %
records = [
    ("CCc1cc(Nc2nccc(-c3c(-c4ccc(OC)c(C(=O)Nc5c(F)cccc5F)c4)nc4ccccn34)n2)c(OC)cc1N1CCC(N2CCN(S(C)(=O)=O)CC2)CC1 (max concentration tested 10000 nM)", 12.8),
]

// query Requested field: percent inhibition of viability. Item: CCN(c1cc(-c2ccc(CN3CCOCC3)cc2)cc(C(=O)NCc2c(C)cc(C)[nH]c2=O)c1C)C1CCOCC1 [E7438] (max concentration tested 10000 nM)
// result -4.36

// query Continue with CC(C)(C)Cn1c(N)nc2ccc(-c3[nH]c(C(C)(C)C)nc3-c3ccc(F)cc3)nc21 [Ralimetinib] (max concentration tested 10000 nM)
// result 5.37

----------
Below is a list of entries, each paired with its recorded relative IC50 value.
System: KAI3 (IL-2 2.5 ng/mL)
Assay: relative IC50 (inflection point of fitted viability curve, relative to fitted max inhibition); higher = less sensitive
Details: 72 h
Give a bare numeral; the unit nM is implied.

# SMILES NOTATION, RECORDED VALUE
data = [
    ("O=C(NOCC1CC1)c1ccc(F)c(F)c1Nc1ccc(I)cc1Cl", 608),
    ("Cc1cc(Nc2cc(N3CCN(C)CC3)nc(Sc3ccc(NC(=O)C4CC4)cc3)n2)n[nH]1", 349),
]

The record that follows has no relative IC50 shown yet.
// query Requested field: relative IC50. Item: CN1CCN(CCOc2cc(OC3CCOCC3)c3c(Nc4c(Cl)ccc5c4OCO5)ncnc3c2)CC1
// result 2110

----------
Test system: KAI3 (IL-2 2.5 ng/mL)
Assay: percent inhibition of viability; higher = more inhibition
Conditions: 72 h; 10 nM
Below is a list of entries, each paired with its recorded percent inhibition of viability value.
Give a bare numeral; the unit % is implied.

Recorded percent inhibition of viability, per entry:
# MOLECULE, MEASURED ATTRIBUTE, RECORDED VALUE
records = [
    ("CO[C@H]1/C=C\\C=C(/C)C(=O)NC2=CC(=O)C(NCCN(C)C)=C(C[C@@H](C)C[C@H](OC)[C@H](O)[C@@H](C)/C=C(\\C)[C@@H]1OC(N)=O)C2=O [Alvespimycin] (max concentration tested 1000 nM)", "percent inhibition of viability", 8.75),
    ("CO[C@@]12[C@H](COC(N)=O)C3=C(C(=O)C(C)=C(N)C3=O)N1C[C@@H]1N[C@@H]12 [Mitomycin C] (max concentration tested 10000 nM)", "percent inhibition of viability", 1.39),
    ("O=C(c1cc(Cc2n[nH]c(=O)c3ccccc23)ccc1F)N1CCN(C(=O)C2CC2)CC1 [Olaparib] (max concentration tested 10000 nM)", "percent inhibition of viability", 3.77),
    ("O=C1c2c(O)ccc(O)c2C(=O)c2c(NCCNCCO)ccc(NCCNCCO)c21 [Mitoxantrone] (max concentration tested 1000 nM)", "percent inhibition of viability", -1.68),
]

// query Requested field: percent inhibition of viability. Item: Cc1nc(Nc2n[nH]c3c2CN(C(=O)N[C@H](CN(C)C)c2ccccc2)C3(C)C)c2sccc2n1 (max concentration tested 10000 nM)
// result 25.2
